Here the recorded Km is given for each entry.
Target: T1, AFACP, ACP of the FAS from Anabaena
T1 chain: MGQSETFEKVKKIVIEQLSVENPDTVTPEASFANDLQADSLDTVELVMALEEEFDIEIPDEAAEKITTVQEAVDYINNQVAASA
value kind: Km

protein="MPPT, Sfp-like phosphopantetheinyl transferase (PPTase) from Microcystis aeruginosa NIES843 (protein) MFISTDEVHLYFISLDPSGDRLETLASLLSEDEIIRANRYHFPEHKRRFLVARGCLREILGSYLAISPEKIEFIYSERGKPSINYQLQFNLSHSEEMAICGLTLTARIGVDLEKMRQMKDLDSLTKRFFCAREHELVEKSAEKEKLFFQLWTAKEAYLKAVGTGISGGLDRVEVGLNPLKLDNVAGEWQLWTAAIGDNYRATVVIEGSDRVIKTFGLSDL" recorded_value="6.9 µM"
protein="SPPT, Sfp-like phosphopantetheinyl transferase (PPTase) from Synechocystis sp. PCC6803 (protein) MLPQPQIWLCPTDRPLIPGYQALLSSEEMARGERYQRPQDKQRFLTMRLALRILLARQLDCLPQQLQFTYGPQGKPELVDRERRSPWFNVAHSGNYGLIGLSTEGEIGVDLQIMLPKPHYLKLAKRFFAPQEVQQLESLEGEKRTKLFYQLWTAKEAFLKATGKGISGGLNQVIPDENLAKYQYLPDSGDTNHWRLSSQPLLADQGSNDNYWMAIAWCTNEVNQVESNYLPNIQPFQWPRNLDSLP" recorded_value="13.3 µM"
protein="APPT, Sfp-like phosphopantetheinyl transferase (PPTase) from Anabaena sp. PCC7120 (protein) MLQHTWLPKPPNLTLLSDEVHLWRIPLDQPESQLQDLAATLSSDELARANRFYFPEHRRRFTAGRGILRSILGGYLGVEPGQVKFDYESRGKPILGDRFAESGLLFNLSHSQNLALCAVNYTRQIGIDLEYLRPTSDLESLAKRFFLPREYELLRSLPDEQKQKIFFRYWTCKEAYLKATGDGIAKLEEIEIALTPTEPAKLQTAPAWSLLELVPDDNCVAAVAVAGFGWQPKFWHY" recorded_value="6.8 µM"
protein="Sfp, phosphopantetheinyl transferase from Bacillus subtilis (protein) MKIYGIYMDRPLSQEENERFMTFISPEKREKCRRFYHKEDAHRTLLGDVLVRSVISRQYQLDKSDIRFSTQEYGKPCIPDLPDAHFNISHSGRWVIGAFDSQPIGIDIEKTKPISLEIAKRFFSKTEYSDLLAKDKDEQTDYFYHLWSMKESFIKQEGKGLSLPLDSFSVRLHQDGQVSIELPDSHSPCYIKTYEVDPGYKMAVCAAHPDFPEDITMVSYEELL" recorded_value="11.6 µM"
